Here we gather Ki data for Rho-associated protein kinase 1 (Homo sapiens) reported by several publications.

As a guide, the following entries are already answered.
{"Compound": "C[C@H](Nc1nc(-c2c[nH]c3ncc(Cl)cc23)ncc1F)C(=O)OC(C)(C)C", "Study Target": "Rho-associated protein kinase 1 (Homo sapiens)", "Observed Result": "500 to 5000 nM"}
{"Compound": "CC1=C(C(=O)Nc2ccc3cnccc3c2)C(c2ccc(C(F)(F)F)c(F)c2)n2nc(C(=O)NCCC(=O)N3CCCC3)cc2N1 (stereo not shown)", "Study Target": "Rho-associated protein kinase 1 (Homo sapiens)", "Observed Result": "< 50 nM"}
{"Compound": "CC(=O)N1[C@H](C)CN(c2cccc(-c3c[nH]c4ncc(NC(=O)c5cccc(C#N)c5)cc34)n2)C[C@@H]1C", "Study Target": "Rho-associated protein kinase 1 (Homo sapiens)", "Observed Result": "500 to 5000 nM"}

I am curious: what Ki value has been reported for Cc1c[nH]c2nccc(Oc3ccc(C[C@H](N)c4nc(-c5ccccc5)no4)cc3F)c12 ?
5 to 50 nM

Which value of Ki has been reported for CC(=O)N1[C@H](C)CN(c2cccc(-c3c[nH]c4ncc(NC(=O)N5CCOCC5)cc34)n2)C[C@@H]1C in the records?
500 to 5000 nM

I would be grateful if you could share the reported Ki for Cc1c[nH]c2nccc(Oc3ccc(C[C@H](N)C(=O)N4C[C@@H]5CN(C6CC6)C[C@@H]5C4)cc3F)c12 .
< 3 nM

====

// read-out Ki, gathered for Rho-associated protein kinase 1 (Homo sapiens, UniProt Q13464) from published studies

Examples with answers:
{"Compound": "Cc1c[nH]c2nccc(Oc3ccc(C[C@H](N)C(=O)N4CCC(NC5CC5)CC4)cc3F)c12", "Ki": "< 0.003 µM"}
{"Compound": "N[C@H](Cc1ccc(Oc2ccnc3[nH]ccc23)cc1)C(=O)Nc1nccs1", "Ki": "> 0.03 µM"}
{"Compound": "N#Cc1c[nH]c2nccc(Oc3ccc(C[C@H](N)C(=O)NC4CCCCC4)cc3)c12", "Ki": "< 0.003 µM"}

Lab note: need Ki for CNC(=O)c1cnc2[nH]cc(-c3cccc(N4C[C@@H](C)N(C(C)=O)[C@@H](C)C4)n3)c2c1 on Rho-associated protein kinase 1 (Homo sapiens, UniProt Q13464), anyone have it?
0.5 to 5 µM

====

Literature compilation of Ki measurements on Rho-associated protein kinase 1 (Homo sapiens, UniProt Q13464).

In the examples that follow, each entry is paired with its recorded Ki.
{"Compound": "CNS(=O)(=O)c1ccc(-c2cnc3[nH]cc(-c4ccc(C(N)=O)cc4)c3c2)cc1", "Study Target": "Rho-associated protein kinase 1 (Homo sapiens, UniProt Q13464)", "Quantity": "Ki", "Observed Result": "< 500 nM"}
{"Compound": "N[C@@H](Cc1ccc(Oc2ccnc3[nH]cc(CCO)c23)cc1)C(=O)N1CCN(Cc2ccccc2)CC1", "Study Target": "Rho-associated protein kinase 1 (Homo sapiens, UniProt Q13464)", "Quantity": "Ki", "Observed Result": "< 3 nM"}
{"Compound": "O=C(Cc1cccc(S(=O)(=O)N2CCOCC2)c1)Nc1nc(-c2c[nH]c3ncccc23)cs1", "Study Target": "Rho-associated protein kinase 1 (Homo sapiens, UniProt Q13464)", "Quantity": "Ki", "Observed Result": "< 500 nM"}
{"Compound": "Cc1sc(NC(=O)Cc2ccccc2)nc1-c1c[nH]c2ncccc12", "Study Target": "Rho-associated protein kinase 1 (Homo sapiens, UniProt Q13464)", "Quantity": "Ki", "Observed Result": "< 500 nM"}
{"Compound": "Cc1cc(-c2csc(NC(=O)Cc3ccccc3Cl)n2)ccn1", "Study Target": "Rho-associated protein kinase 1 (Homo sapiens, UniProt Q13464)", "Quantity": "Ki", "Observed Result": "100 to 1000 nM"}

What value of Ki on Rho-associated protein kinase 1 (Homo sapiens, UniProt Q13464) does COc1cccc(CC(=O)Nc2nc(-c3c[nH]c4nccc(F)c34)cs2)c1 have?
< 500 nM

Kindly state the measured Ki obtained for N[C@@H](Cc1ccc(Oc2ccnc3[nH]cc(C4CC4)c23)cc1)C(=O)NC1CCCCC1 with Rho-associated protein kinase 1 (Homo sapiens, UniProt Q13464).
< 3 nM

// lookup Ki | system=Rho-associated protein kinase 1 (Homo sapiens, UniProt Q13464) | key= CCS(=O)(=O)Nc1ccc(CC(=O)Nc2nc(-c3c[nH]c4ncccc34)cs2)c(Cl)c1
< 500 nM

Give recorded Ki with Rho-associated protein kinase 1 (Homo sapiens, UniProt Q13464) for the following compound: N[C@@H](Cc1ccc(Oc2ncnc3[nH]ccc23)cc1)C(=O)NC1CCCCC1
> 30 nM

Test system Rho-associated protein kinase 1 (Homo sapiens, UniProt Q13464); read-out Ki; what value for COc1ccc(CC(=O)Nc2nc(-c3c[nH]c4ncccc34)cs2)c(Cl)c1 ?
< 500 nM

Form: Entry = Cc1c[nH]c2nccc(Oc3ccc(CC(CN)C(=O)N4C[C@@H]5C[C@H]4CN5C)cc3F)c12 (single isomer, unassigned) | System = Rho-associated protein kinase 1 (Homo sapiens, UniProt Q13464) | Ki = ____
< 3 nM

Given the entry N[C@@H](Cc1ccc(Oc2ccnc3[nH]cc(Br)c23)c(F)c1)C(=O)NC1CCCCC1 , what Ki was observed with Rho-associated protein kinase 1 (Homo sapiens, UniProt Q13464)?
< 3 nM

Query for Rho-associated protein kinase 1 (Homo sapiens, UniProt Q13464): what Ki does the record show for N[C@H](Cc1ccc(Oc2ccnc3[nH]ccc23)cc1)C(=O)NCc1ccccc1 ?
> 30 nM

Record lookup: for Rho-associated protein kinase 1 (Homo sapiens, UniProt Q13464), what Ki belongs to Cc1cc(N[C@@H](C)C(=O)NCCNS(C)(=O)=O)nc(-c2c[nH]c3ncc(Cl)cc23)n1 ?
500 to 5000 nM

====

Multiple publications report pKi for Rho-associated protein kinase 1 (Homo sapiens); what follows is a combined list.
pKi: −log10 of the molar value.

{"Compound": "CC(=O)N1CCCN(c2cccc(-c3c[nH]c4ncc(F)cc34)n2)CC1", "pKi": "5.30 to 6.30"}
{"Compound": "Cc1c[nH]c2nccc(Oc3ccc(C[C@H](N)C(=O)N4CCN(Cc5ccccn5)CC4)cc3F)c12", "pKi": "> 8.52"}
{"Compound": "COc1cccc(CC(=O)Nc2cc(-c3ccnc(C)c3)cs2)c1", "pKi": "6.00 to 7.00"}
{"Compound": "C[C@H](Nc1nc(-c2c[nH]c3ncc(Cl)cc23)ncc1F)c1cccc(OCC(=O)O)c1", "pKi": "5.30 to 6.30"}
{"Compound": "CS(=O)(=O)Nc1cccc(CC(=O)Nc2nc(-c3c[nH]c4nccc(Cl)c34)cs2)c1", "pKi": "> 6.30"}
{"Compound": "NC(=O)c1ccc(-c2c[nH]c3ncc(CCc4ccccc4)cc23)cc1", "pKi": "> 6.30"}

Checklist item: pKi tested on Rho-associated protein kinase 1 (Homo sapiens), entry CNCc1ccc(Oc2ccnc3[nH]cc(C)c23)cc1 , value?
7.30 to 8.30

====

Compiled literature Ki, tested on Rho-associated protein kinase 1 (Homo sapiens).

{"Smiles": "C[C@@H](CO)Nc1cccc(-c2c[nH]c3ncc(Cl)cc23)n1", "Ki": "500 to 5000 nM"}
{"Smiles": "CS(=O)(=O)Nc1cccc(CNC(=O)c2ccc(-c3c[nH]c4ncccc34)s2)c1", "Ki": "< 500 nM"}
{"Smiles": "Cc1c[nH]c2nccc(Oc3ccc(C[C@H](N)C(=O)NC4(CO)CCCCC4)cc3F)c12", "Ki": "< 3 nM"}
{"Smiles": "CC(C)(C)OC(=O)Nc1cccc(-c2c[nH]c3ncc(Cl)cc23)n1", "Ki": "500 to 5000 nM"}

Param readout = Ki; param system = Rho-associated protein kinase 1 (Homo sapiens); param query = CN(C)c1cccc(-c2c[nH]c3ncc(Cl)cc23)n1 ; response: value
500 to 5000 nM

Form entry - test system: Rho-associated protein kinase 1 (Homo sapiens); read-out: Ki; molecule: Cc1c[nH]c2nccc(Oc3ccc4c(c3)CNCCC4)c12
5 to 50 nM

Write down the reported Ki of Nc1cc(-c2csc(NC(=O)Cc3cccc(O)c3)n2)ccn1 , test system: Rho-associated protein kinase 1 (Homo sapiens).
< 100 nM

Record O=C(Cn1cc(-c2c[nH]c3nccc(Oc4ccc5c(c4)CNCC5)c23)nn1)NCc1ccccc1 : what is its Ki with Rho-associated protein kinase 1 (Homo sapiens)?
3 to 30 nM

Quick check: Ki on Rho-associated protein kinase 1 (Homo sapiens), item O=C(Cc1cccc(S(=O)(=O)N2CCOCC2)c1)Nc1nc(-c2c[nH]c3ncc(Br)cc23)cs1 ?
< 500 nM
